Test system: 4T1
procedure.summary: % inhibition of 4T1 cell number vs DMSO control; higher = stronger growth inhibition
applied.conditions: 1 µM; 3 days; substrate: plastic
Listing: % inhibition of 4T1 cell number of selected molecules

Before answering, review these 6 worked examples.
molecule: Nc1nc(Nc2ccc(S(N)(=O)=O)cc2)nn1C(=S)Nc1c(F)cccc1F [Cdk1/2 Inhibitor III]
meas.value: 95.5%

molecule: Cc1cc(Nc2nc(-c3ccccc3)nc3ccccc23)n[nH]1 [GSK-3 Inhibitor XIII]
meas.value: -14.5%

molecule: Cc1cc2ncc(-c3ccccc3)nc2cc1C
meas.value: 45.2%

molecule: O=C(Nc1ccc(Cl)cc1)c1ccccc1NCc1ccncc1 [VEGF Receptor Tyrosine Kinase Inhibitor II]
meas.value: 17.2%

molecule: COc1ccc2c(c1)c1c3c(c4c5ccccc5n(C)c4c1n2CC(O)CN(C)C)C(=O)NC3=O (configuration not stated)
meas.value: -42.9%

molecule: COc1ccc(CNc2nc(N(CCO)CCO)nc3c2ncn3C(C)C)cc1 [Cdk2 Inhibitor III]
meas.value: -27.8%

// lookup % inhibition of 4T1 cell number for O=C(c1ccccc1)c1ccc(N2CCOCC2)cc1O [DNA-PK Inhibitor V]
92.7%

Try COc1cc(SC)ccc1C(=O)N1CCC(Cc2ccccc2)CC1 [p38 MAP Kinase Inhibitor VI, JX401] next.
-66.3%

Try "N#CC(C#N)=C(N)/C(C#N)=C/c1ccc(O)cc1" next.
21.1%

Try "O=c1cc(N2CCNCC2)oc2c(-c3ccccc3)cccc12" next.
-42.8%

Try C[C@@H](N)C1CCC(C(=O)Nc2ccncc2)CC1 (some centres not stated) next.
-47.5%

---

Test system: 4T1
procedure.summary: % inhibition of 4T1 cell number vs DMSO control; higher = stronger growth inhibition
applied.conditions: 1 µM; 3 days; substrate: Matrigel
Listing: % inhibition of 4T1 cell number of selected compounds
Write the answer as a number in %, unit excluded.

compound: Cc1cc(Nc2nc(-c3ccccc3)nc3ccccc23)n[nH]1
% inhibition of 4T1 cell number, %: -21.7
//
compound: CC(=O)c1ccc(N2CCOCC2)cc1O
% inhibition of 4T1 cell number, %: 0.894
//
compound: Nc1nccc(-c2c(-c3ccc(F)cc3)ncn2C2CCNCC2)n1
% inhibition of 4T1 cell number, %: -17.8
//
compound: O=C1Nc2ccc(Br)cc2/C1=C/c1cc2c([nH]1)CCCC2
% inhibition of 4T1 cell number, %: 16.3
//
compound: c1ccc(-c2cnc(Nc3ccc(OCCN4CCCC4)cc3)s2)cc1
% inhibition of 4T1 cell number, %: 95.2

// lookup % inhibition of 4T1 cell number for "NCCNc1ncc(C(N)=O)c(Nc2cccc(C(F)(F)F)c2)n1"
-0.528

---

Test system: 4T1
procedure.summary: % inhibition of 4T1 cell number vs DMSO control; higher = stronger growth inhibition
applied.conditions: 1 µM; 3 days; substrate: mCAF1 fibroblast-derived matrix
outcome.measure: % inhibition of 4T1 cell number (%)
Write the answer as a number in %, unit excluded.

Before answering, review these 3 worked examples.
compound: CSc1nc(-c2ccnc(NC(C)c3ccccc3)c2)c(-c2ccc(F)cc2)[nH]1 (centres undefined)
meas.value: 23.1

compound: CC(=O)O/N=C1/C(c2c(O)[nH]c3cc(Br)ccc23)=Nc2ccccc21
meas.value: 59.3

compound: COc1nccc(-c2c(-c3ccc(F)cc3)ncn2C2CCC(O)CC2)n1 (centres undefined)
meas.value: -18.3

Please turn your attention to the following entry.
// lookup % inhibition of 4T1 cell number for "O=C1NC(=O)C(c2cn(CCCO)c3ncccc23)=C1c1cnccn1"
15.6

---

Test system: 4T1
procedure.summary: % inhibition of 4T1 cell number vs DMSO control; higher = stronger growth inhibition
applied.conditions: 1 µM; 3 days; substrate: plastic
Where a name gives a salt, the structure may show the parent alone.
outcome.measure: % inhibition of 4T1 cell number
Be sure to follow the number with its unit.

molecule: O=S(=O)(c1cccc2c(I)cccc12)N1CCCNCC1 [ML-7, Hydrochloride]
% inhibition of 4T1 cell number: -7.72%
//
molecule: O=C1NC(=O)C(c2c[nH]c3ccccc23)=C1c1c[nH]c2ccccc12 [Bisindolylmaleimide IV]
% inhibition of 4T1 cell number: -20.6%
//
molecule: N#CC(c1ccnc(NCCc2cccnc2)n1)c1nc2ccccc2s1 (stereo not given)
% inhibition of 4T1 cell number: 8.02%

Short answer please: % inhibition of 4T1 cell number, 4T1, entry "c1nc2c(NC3CCCCC3)nc(Nc3ccc(N4CCOCC4)cc3)nc2[nH]1"
63.1%

Try "COc1ccc(Cl)cc1NC(=O)Nc1cc(C)nc2ccccc12" next.
-44.3%

---

Tested on: 4T1
procedure.summary: % inhibition of 4T1 cell number vs DMSO control; higher = stronger growth inhibition
applied.conditions: 1 µM; 3 days; substrate: Matrigel
Listing: % inhibition of 4T1 cell number of selected molecules
Write the answer as a number in %, unit excluded.

Before answering, review these 4 worked examples.
molecule: CCCCCCOC(=O)[C@]1(O)C[C@@H]2O[C@@]1(C)n1c3ccccc3c3c4c(c5c6ccccc6n2c5c31)C(=O)NC4
meas.value: -41.8
//
molecule: CC[C@H](CO)Nc1nc(NCc2ccccc2)c2ncn(C(C)C)c2n1 [Roscovitine]
meas.value: -1.22
//
molecule: CCCC(=O)Oc1ccc2[nH]c(C(=O)c3cc4ccccc4[nH]3)cc2c1 [PDGF Receptor Tyrosine Kinase Inhibitor II]
meas.value: -18.7
//
molecule: CCC(=O)Nc1ccc2ncnc(Nc3cccc(Br)c3)c2c1
meas.value: -8.72

// lookup % inhibition of 4T1 cell number for "COc1cccc(-c2cc(=O)c3ccccc3o2)c1N"
-3.15

Try O=c1[nH][nH]c2nnc(-c3c(-c4ccccc4)nn4ccccc34)cc12 [ERK Inhibitor II, Negative control] next.
-40.3

Try COc1cc2ncnc(Nc3ccc(NC(=O)c4ccccc4)cc3)c2cc1OC [Aurora Kinase Inhibitor II] next.
50.4

Try O=C1NCCc2[nH]c(-c3ccnc(-c4cnc5ccccc5c4)c3)cc21 [MK-2 Inhibitor III] next.
-42.1

Try Cc1cncc2cccc(S(=O)(=O)N3CCCN(C(=O)CN)C[C@@H]3C)c12 [Rho Kinase Inhibitor IV] next.
-39.7

Try "COc1ccc(OC)c2c(=S)c3ccccc3[nH]c12" next.
-8.48

Try CC(C)n1cnc2c(NCc3ccccc3O)nc(NCCCO)nc21 [Cdk Inhibitor, p35] next.
20.1

Try "O=[N+]([O-])c1ccc(-c2nc(-c3ccc(F)cc3)c(-c3ccncc3)[nH]2)cc1" next.
-4.18

Try Brc1c(Br)c(Br)c2n[nH]nc2c1Br [Casein Kinase II Inhibitor I] next.
49.8

Try NC(=O)c1ccc2nc(-c3ccc(Oc4ccc(Cl)cc4)cc3)[nH]c2c1 [Chk2 Inhibitor II] next.
-26.7

Try "Cc1nc(-c2ccccc2)c(-c2ccncc2)o1" next.
36.5

Try O=C(c1ccc(Nc2nccc(-c3cc4ccccc4s3)n2)cc1)N1CCC(N2CCCC2)CC1 [IKK Inhibitor VII] next.
81.6

Try CCCCc1c(-c2ccc(OC)cc2)[nH]c2nccnc12 [Aloisine, RP106] next.
39.6

Try "COc1cc(OC)c(C=C2C(=O)Nc3ccccc32)c(OC)c1" next.
85.7

---

System: 4T1
procedure.summary: % inhibition of 4T1 cell number vs DMSO control; higher = stronger growth inhibition
applied.conditions: 1 µM; 3 days; substrate: mCAF1 fibroblast-derived matrix
Counter-ions that a name gives are not always drawn.
Listing: % inhibition of 4T1 cell number of selected compounds
Write the answer as a number in %, unit excluded.

Before answering, review these 4 worked examples.
compound: CC(C)n1cnc2c(NCc3ccccc3O)nc(NCCCO)nc21 [Cdk Inhibitor, p35]
meas.value: -51.8
//
compound: O=S(=O)(NCCNC/C=C/c1ccc(Br)cc1)c1cccc2cnccc12 [H-89, Dihydrochloride]
meas.value: 36
//
compound: Cc1cncc2cccc(S(=O)(=O)N3CCCN(C(=O)CN)C[C@@H]3C)c12 [Rho Kinase Inhibitor IV]
meas.value: 15.7
//
compound: Nc1nccc(-c2c(-c3ccc(F)cc3)ncn2C2CCNCC2)n1
meas.value: 29.5

// lookup % inhibition of 4T1 cell number for NS(=O)(=O)c1ccc(N=Nc2c(O)[nH]c3ccc(Br)cc23)cc1 [Cdk2 Inhibitor II]
18.1

Try O=c1c2ccccc2[nH]c(=S)n1CCN1CCC(=C(c2ccc(F)cc2)c2ccc(F)cc2)CC1 [Diacylglycerol Kinase Inhibitor II] next.
-11

Try "COc1cc(OC)c(C=C2C(=O)Nc3ccccc32)c(OC)c1" next.
84.2

Try COc1ccc(CNC(=O)Nc2ncc([N+](=O)[O-])s2)cc1 [GSK-3b Inhibitor VIII] next.
24.4

Try O=C1c2ccccc2-c2nc3nnnn3nc21 [PDK1/Akt/Flt Dual Pathway Inhibitor] next.
95.4

Try "COc1cc2ncc(-c3ccccc3)nc2cc1OC" next.
27.8

Try CC[C@H](CO)Nc1nc(NCc2ccccc2O)c2ncn(C(C)C)c2n1 [Olomoucine II] next.
13.3

Try N#C/C(=C(/N)Sc1ccccc1N)c1cccc(C(O)c2ccncc2)c1 (stereo not drawn) [MEK Inhibitor I] next.
40.9

Try "Nc1ccc(-c2cccc3c(=O)cc(N4CCOCC4)oc23)cc1" next.
28.6

Try COc1cc2ncnc(Nc3cccc(O)c3)c2cc1OC [WHI-P180, Hydrochloride] next.
-4.63

Try O=C1C(=Cc2ccc(O)cc2)C2=Nc3ccccc3C2=C1C1=C2C(=Nc3ccccc32)C(=Cc2ccc(O)cc2)C1=O [Scytonemin, Lyngbya sp.] next.
26.2

Try CC(C)[C@H](CO)Nc1nc(Nc2cccc(Cl)c2)c2ncn(C(C)C)c2n1 [Purvalanol A] next.
40.3

Try O=C1NCCc2[nH]c(-c3ccnc(-c4cnc5ccccc5c4)c3)cc21 [MK-2 Inhibitor III] next.
4.98

Try CCCOc1ccc(/C=C2/SC(=O)NC2=O)cc1 [PIM1/2 Kinase Inhibitor VI] next.
-16.9
